Reference for the values: patent US9683238

- measurement_target: VEGF165 (vascular endothelial growth factor 165) (Homo sapiens, UniProt P15692-4 P15692-4:27-191)
- Sequence (P15692 other isoform, or with tags, fused parts or gaps): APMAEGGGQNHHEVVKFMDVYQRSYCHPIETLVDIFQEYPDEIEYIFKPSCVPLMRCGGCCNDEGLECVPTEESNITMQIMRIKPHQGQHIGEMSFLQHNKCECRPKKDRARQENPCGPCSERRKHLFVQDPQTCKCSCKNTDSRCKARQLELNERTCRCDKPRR
- protocol_summary: SPR; VEGF immobilized on CM5; TBS with 5 mM KCl, pH 7.4, 20 C
- test_parameters: tags: R&D Systems, expressed in Sf21 insect cells; chain copies: 2 (inferred, homodimer)
measured_parameter: Kd (nM)
Hi! Could you send only the number? It should be in nM, unit omitted.

Q) Give the measured Kd of TGTGGGGGTGGACTGGGTGGGTACC (ssDNA) [3R02 (3R#02)] .
A) 0.3
